# measured on: T1, human CLDN18.2 (human)
# T1 construct: also called huCLDN18.2; hCLDN18.2
# method description: flow cytometry titration, PA-TU-8988S-High cells
Recorded Max MFI by entry
observed property: Max MFI

>>> measured_value("hCl1j (antibody, human IgG1, kappa, V domains shown, Humanized) VH: QVQLVQSGAEVKKPGASVKVSCKASGYTFTDYAMYWVRQAPGQRLEWMGWINAYTGKPTYAQKFQGRVTITRDTSASTAYMELSSLRSEDTAVYYCARAVYYGYTMDAWGQGTLVTVSS VL: DIQMTQSPSSLSASVGDRVTITCRTSEDIYSNLAWYQQKPGKAPKLLIFAIKRLQDGVPSRFSGSGSGTDFTLTISSLQPEDFATYYCLQGSKFPLTFGQGTKVEIKR")
"1700 MFI"
>>> measured_value("hCl1g (antibody, human IgG1, kappa, V domains shown, Humanized) VH: QVQLVQSGAEVKKPGASVKVSCKASGYTFTDYAMHWVRQAPGQRLEWMGWINAYTGKPTYAQKFQGRVTITRDTSASTAYMELSSLRSEDTAVYYCARAVFYGYTMDAWGQGTLVTVSS VL: DIQMTQSPSSLSASVGDRVTITCRTSEDIYSNFAWYQQKPGKAPKLLIYSVNRLQDGVPSRFSGSGSGTDFTLTISSLQPEDFATYYCLQGSKFPLTFGQGTKVEIKR")
"1250 MFI"
>>> measured_value("hCl1c (antibody, human IgG1, kappa, V domains shown, Humanized) VH: QVQLVQSGAEVKKPGASVKVSCKASGYTFTDYAMHWVRQAPGQRLEWMGWINTYTGKPTYSQKFQGRVTITRDTSASTAYMELSSLRSEDTAVYYCARAVFYGYTMDAWGQGTLVTVSS VL: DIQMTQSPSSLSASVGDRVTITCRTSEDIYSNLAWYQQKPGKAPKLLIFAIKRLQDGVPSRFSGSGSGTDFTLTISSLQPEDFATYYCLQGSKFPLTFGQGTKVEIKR")
"1050 MFI"
>>> measured_value("hCl1d (antibody, human IgG1, kappa, V domains shown, Humanized) VH: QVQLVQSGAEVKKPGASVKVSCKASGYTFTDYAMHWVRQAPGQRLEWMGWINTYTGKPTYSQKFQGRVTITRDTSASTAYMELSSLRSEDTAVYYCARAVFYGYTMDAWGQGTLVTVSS VL: DIQMTQSPSSLSASVGDRVTITCRTSEDIYSNFAWYQQKPGKAPKLLIYSVNRLQDGVPSRFSGSGSGTDFTLTISSLQPEDFATYYCLQGSKFPLTFGQGTKVEIKR")
"1530 MFI"
>>> measured_value("hCl1h (antibody, human IgG1, kappa, V domains shown, Humanized) VH: QVQLVQSGAEVKKPGASVKVSCKASGYTFTDYAMYWVRQAPGQRLEWMGWINAYTGKPTYAQKFQGRVTITRDTSASTAYMELSSLRSEDTAVYYCARAVYYGYTMDAWGQGTLVTVSS VL: DIQMTQSPSSLSASVGDRVTITCRASEDIYSNLAWYQQKPGKAPKLLIYSVKRLQDGVPSRFSGSGSGTDFTLTISSLQPEDFATYYCLQGSNFPLTFGQGTKVEIKR")
"1950 MFI"
